# system-under-test: human TAS2R1 (Homo sapiens)
# Construct: expressed in transfected cells; host or cells: HEK293T-Gα16gust44
# Sequence (Q9NYW7 1-299): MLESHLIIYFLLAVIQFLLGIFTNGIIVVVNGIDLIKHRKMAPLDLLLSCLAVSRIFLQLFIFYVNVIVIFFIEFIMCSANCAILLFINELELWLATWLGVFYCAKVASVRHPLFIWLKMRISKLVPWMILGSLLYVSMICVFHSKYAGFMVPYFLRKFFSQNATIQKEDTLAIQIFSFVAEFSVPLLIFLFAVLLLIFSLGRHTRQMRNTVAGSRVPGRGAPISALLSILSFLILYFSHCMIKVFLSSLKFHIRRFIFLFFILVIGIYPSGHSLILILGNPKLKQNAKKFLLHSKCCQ
# assay-details: Calcium imaging assay (FLIPR), HEK293T-Gα16gust44 cells transfected with human TAS2R1
# Type: cell-based
# test-conditions: Time 22.781 s
Kindly supply the reported RLU values for the records listed here.
Answers are plain numbers, in RLU.

Would you please look over these solved cases?
compound	RLU [RLU]
C[C@H](CCC(=O)NCC(=O)O)[C@H]1CC[C@H]2[C@@H]3[C@H](O)C[C@@H]4C[C@H](O)CC[C@]4(C)[C@H]3C[C@H](O)[C@]12C [Glycocholic Acid, glycocholic acid]	-29.3432
C[C@H](CCC(=O)NCCS(=O)(=O)O)[C@H]1CC[C@H]2[C@@H]3[C@H](O)C[C@@H]4C[C@H](O)CC[C@]4(C)[C@H]3C[C@H](O)[C@]12C [Taurocholic Acid, taurocholic acid]	36.5466
C[C@H](CCC(=O)O)[C@H]1CC[C@H]2[C@@H]3CC[C@@H]4C[C@H](O)CC[C@]4(C)[C@H]3C[C@H](O)[C@]12C [Deoxycholic Acid, deoxycholic acid]	-47.6337

Turning to the following compound.
QUERY: Please state recorded RLU (tested on human TAS2R1 (Homo sapiens)) of C[C@H](CCC(=O)NCCS(=O)(=O)O)[C@H]1CC[C@H]2[C@@H]3CC[C@@H]4C[C@H](O)CC[C@]4(C)[C@H]3CC[C@]12C [Taurolithocholic Acid, taurolithocholic acid]
RESULT: 1.644

====

# system-under-test: human TAS2R1 (Homo sapiens)
# Construct: expressed in transfected cells; host or cells: HEK293T-Gα16gust44
# assay-details: Calcium imaging assay (FLIPR), HEK293T-Gα16gust44 cells transfected with human TAS2R1
# Type: cell-based
# test-conditions: Time 114.796 s
Kindly supply the reported RLU values for the records listed here.
Give bare numbers, in RLU.

Would you please look over these solved cases?
>>> df
                        structure_as_smiles  units_symbol  reported_result
0  C[C@H](CCC(=O)O)[C@H]1CC[C@H]2[C@@H]3CC[C@@H]4C[C@H](O)CC[C@]4(C)[C@H]3CC[C@]12C           RLU          846.501
1  C[C@H](CCC(=O)O)[C@H]1CC[C@H]2[C@@H]3[C@H](O)C[C@@H]4C[C@H](O)CC[C@]4(C)[C@H]3C[C@H](O)[C@]12C           RLU          510.693
2  C[C@H](CCC(=O)O)[C@H]1CC[C@H]2[C@@H]3[C@H](O)C[C@@H]4C[C@H](O)CC[C@]4(C)[C@H]3CC[C@]12C           RLU           607.76

Turning to the following compound.
QUERY: Entry under review: C[C@H](CCC(=O)O)[C@H]1CC[C@H]2[C@@H]3[C@@H](O)C[C@@H]4C[C@H](O)CC[C@]4(C)[C@H]3CC[C@]12C . Reported RLU?
RESULT: 362.533

====

Kindly supply the reported RLU, fluorescence trace values for the records listed here.
# system-under-test: human TAS2R4 (Homo sapiens, UniProt Q9NYW5)
# Construct: expressed in transfected cells; host or cells: HEK293T-Gα16gust44
# Sequence (Q9NYW5 1-299): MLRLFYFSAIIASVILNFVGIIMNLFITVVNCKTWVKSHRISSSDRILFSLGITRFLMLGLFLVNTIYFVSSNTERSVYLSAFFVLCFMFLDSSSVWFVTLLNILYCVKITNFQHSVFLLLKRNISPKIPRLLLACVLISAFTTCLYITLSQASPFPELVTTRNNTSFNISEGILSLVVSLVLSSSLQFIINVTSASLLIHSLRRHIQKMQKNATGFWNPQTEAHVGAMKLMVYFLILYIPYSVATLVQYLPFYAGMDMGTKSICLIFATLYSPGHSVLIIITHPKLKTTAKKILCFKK
# assay-details: Calcium imaging assay (FLIPR), HEK293T-Gα16gust44 cells transfected with human TAS2R4; note: test concentration or dose not given here
# Format: cell-based
# test-conditions: Time (s) 341.547
Give bare numbers, in RLU.

Would you please look over these solved cases?
                        structure_as_smiles  reported_result
0  C[C@H](CCC(=O)NCCS(=O)(=O)O)[C@H]1CC[C@H]2[C@@H]3CC[C@@H]4C[C@H](O)CC[C@]4(C)[C@H]3CC[C@]12C           98.825
1  C[C@H](CCC(=O)NCC(=O)O)[C@H]1CC[C@H]2[C@@H]3[C@H](O)C[C@@H]4C[C@H](O)CC[C@]4(C)[C@H]3C[C@H](O)[C@]12C          127.876
2  C[C@H](CCC(=O)NCCS(=O)(=O)O)[C@H]1CC[C@H]2[C@@H]3[C@H](O)C[C@@H]4C[C@H](O)CC[C@]4(C)[C@H]3C[C@H](O)[C@]12C          164.861

Provide reported RLU, fluorescence trace for each item, in the same order as listed.
1. C[C@H](CCC(=O)O)[C@H]1CC[C@H]2[C@@H]3CC[C@@H]4C[C@H](O)CC[C@]4(C)[C@H]3C[C@H](O)[C@]12C
2. C[C@H](CCC(=O)O)[C@H]1CC[C@H]2[C@@H]3[C@@H](O)C[C@@H]4C[C@H](O)CC[C@]4(C)[C@H]3CC[C@]12C
3. C[C@H](CCC(=O)O)[C@H]1CC[C@H]2[C@@H]3[C@H](O)C[C@@H]4C[C@H](O)CC[C@]4(C)[C@H]3C[C@H](O)[C@]12C

RESULT:
1: 350.479; 2: 132.356; 3: 283.853

====

Kindly supply the reported RLU values for the records listed here.
# system-under-test: human TAS2R1 (Homo sapiens)
# Construct: expressed in transfected cells; host or cells: HEK293T-Gα16gust44
# assay-details: Calcium imaging assay (FLIPR), HEK293T-Gα16gust44 cells transfected with human TAS2R1
# Assay type: cell-based
# test-conditions: Time 104.781 s
Give bare numbers, in RLU.

Would you please look over these solved cases?
In [3]: df
Out[3]:
                        structure_as_smiles  reported_endpoint  reported_result
0  C[C@H](CCC(=O)NCCS(=O)(=O)O)[C@H]1CC[C@H]2[C@@H]3[C@H](O)C[C@@H]4C[C@H](O)CC[C@]4(C)[C@H]3C[C@H](O)[C@]12C                RLU          343.693
1  C[C@H](CCC(=O)NCC(=O)O)[C@H]1CC[C@H]2[C@@H]3[C@H](O)C[C@@H]4C[C@H](O)CC[C@]4(C)[C@H]3C[C@H](O)[C@]12C                RLU          541.673
2  C[C@H](CCC(=O)O)[C@H]1CC[C@H]2[C@@H]3CC[C@@H]4C[C@H](O)CC[C@]4(C)[C@H]3C[C@H](O)[C@]12C                RLU          431.288

Turning to the following compound.
QUERY: Entry under review: C[C@H](CCC(=O)NCCS(=O)(=O)O)[C@H]1CC[C@H]2[C@@H]3CC[C@@H]4C[C@H](O)CC[C@]4(C)[C@H]3CC[C@]12C . Reported RLU?
RESULT: 622.006

====

# system-under-test: human TAS2R1 (Homo sapiens, UniProt Q9NYW7)
# Construct: expressed in transfected cells; host or cells: HEK293T-Gα16gust44
# assay-details: Calcium imaging assay (FLIPR), HEK293T-Gα16gust44 cells transfected with human TAS2R1
# Assay type: cell-based
# test-conditions: Time 102.781 s
reported-endpoint: RLU (RLU)
Numbers only, in RLU.

                        structure_as_smiles                         system_under_test  reported_endpoint  reported_result
0  C[C@H](CCC(=O)NCCS(=O)(=O)O)[C@H]1CC[C@H]2[C@@H]3[C@H](O)C[C@@H]4C[C@H](O)CC[C@]4(C)[C@H]3C[C@H](O)[C@]12C  human TAS2R1 (Homo sapiens, UniProt Q9NYW7)                RLU          391.574

Provide reported RLU for each item, in the same order as listed.
1. C[C@H](CCC(=O)NCCS(=O)(=O)O)[C@H]1CC[C@H]2[C@@H]3CC[C@@H]4C[C@H](O)CC[C@]4(C)[C@H]3CC[C@]12C
2. C[C@H](CCC(=O)NCC(=O)O)[C@H]1CC[C@H]2[C@@H]3[C@H](O)C[C@@H]4C[C@H](O)CC[C@]4(C)[C@H]3C[C@H](O)[C@]12C
3. C[C@H](CCC(=O)O)[C@H]1CC[C@H]2[C@@H]3CC[C@@H]4C[C@H](O)CC[C@]4(C)[C@H]3C[C@H](O)[C@]12C

RESULT:
653.391
549.55
404.992
